- Assay Summary: self-splicing fitness, log relative to wild type (ln ratio); higher = more splicing; Tetrahymena group I intron in knt gene, E. coli kanamycin selection, DiMSum; sequences stand for … in CUCUCU…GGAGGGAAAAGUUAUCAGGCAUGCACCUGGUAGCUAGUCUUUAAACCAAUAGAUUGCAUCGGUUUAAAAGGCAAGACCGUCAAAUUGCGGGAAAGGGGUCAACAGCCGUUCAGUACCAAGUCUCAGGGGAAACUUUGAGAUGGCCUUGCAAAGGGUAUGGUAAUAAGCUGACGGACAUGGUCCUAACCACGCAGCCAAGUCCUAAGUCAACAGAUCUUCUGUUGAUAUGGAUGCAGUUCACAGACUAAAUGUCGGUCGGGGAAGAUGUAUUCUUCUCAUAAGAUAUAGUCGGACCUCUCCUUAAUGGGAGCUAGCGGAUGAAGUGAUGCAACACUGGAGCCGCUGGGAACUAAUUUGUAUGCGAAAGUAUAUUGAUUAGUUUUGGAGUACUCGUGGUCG;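 also: selection with 25 µg/mL kanamycin versus none on LB agar overnight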
- Experimental Setup: 37 °C
Below, each of the sequences is paired with its reported self-splicing fitness (ln) value.

Macromolecule Sequence | self-splicing fitness (ln)
UAUCAGCAAUAUUACGUCGG | 0.0416
AGGGAGCAAUAUUACGAUAG | -2.66
AGUAAGCAAUAUUACGAGUU | -0.877
AUGCAGCAAUAUUACGUACC | 0.409
GGAUAGCAAUAUUACGUCGU | -0.841
AUUCAGCAAUAUUACGCAAG | -0.884
CGUGAGCAAUAUUACGUCUA | -1.59
UGCUAGCAAUAUUACGCGCC | -0.477
GUACAGCAAUAUUACGUAUG | -1.45
GACCAGCAAUAUUACGCGUC | -2.54
AAGCAGCAAUAUUACGGGCA | -0.789
GUUGAGCAAUAUUACGGCUG | -0.467
GCUGAGCAAUAUUACGGGCA | -2.69
UCGUAGCAAUAUUACGUCCG | -0.517
AGCUAGCAAUAUUACGGCGA | 0.0269
ACUGAGCAAUAUUACGCCCU | -1.05

====

Below, each of the sequences is paired with its reported self-splicing fitness (ln) value.
- Assay Summary: self-splicing fitness, log relative to wild type (ln ratio); higher = more splicing; Tetrahymena group I intron in knt gene, E. coli kanamycin selection, DiMSum; sequences stand for … in CUCUCU…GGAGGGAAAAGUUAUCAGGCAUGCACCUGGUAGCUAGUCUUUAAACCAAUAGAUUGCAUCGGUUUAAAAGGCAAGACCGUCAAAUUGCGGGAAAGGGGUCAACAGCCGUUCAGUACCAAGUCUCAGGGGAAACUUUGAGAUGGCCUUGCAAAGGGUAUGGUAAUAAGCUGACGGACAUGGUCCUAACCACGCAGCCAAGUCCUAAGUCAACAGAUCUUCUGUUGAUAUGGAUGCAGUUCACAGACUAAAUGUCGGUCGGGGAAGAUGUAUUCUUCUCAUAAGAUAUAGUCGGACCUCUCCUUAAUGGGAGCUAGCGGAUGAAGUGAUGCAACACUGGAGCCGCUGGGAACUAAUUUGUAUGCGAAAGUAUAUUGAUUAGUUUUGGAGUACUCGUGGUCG
- Experimental Setup: 37 °C

Macromolecule Sequence | self-splicing fitness (ln)
CAGAAGCAAUAUUACGUCAG | -0.204
AAGCAGCAAUAUUACGAACU | -1
GGGCAGCAAUAUUACGGGAA | -2.7
GAGGAGCAAUAUUACGGUUU | -2.28
GCAUAGCAAUAUUACGCCAA | -2.76
GAGAAGCAAUAUUACGCUUG | -0.658
CAGGAGCAAUAUUACGUAGC | -2.7
UACCAGCAAUAUUACGUACG | -0.594
CGGCAGCAAUAUUACGAAUU | -2.6
AACGAGCAAUAUUACGGCGG | -1.13
UGCAAGCAAUAUUACGCCAC | -3.58
GAACAGCAAUAUUACGAUCU | -0.287
CCGGAGCAAUAUUACGUUAC | -1.67
CACUAGCAAUAUUACGACGC | -1.02
AGCCAGCAAUAUUACGAGAG | -3.02
CAAGAGCAAUAUUACGGAUA | -2.32
